- Test system: SKN-3 (Head and Neck Carcinoma)
- EXPERIMENT SUMMARY: combination Emax (second highest fraction inhibited in the dose matrix, 72 h); higher = more inhibition; extreme values may be limits of the assay
OUTCOME MEASURE: combination Emax
# answer = number (no unit)

Answered examples (6):
combination Emax for SKN-3 (Head and Neck Carcinoma) with input CN(C)CCCOc1ccc(-c2ccc3ncc4c(c3c2)n(C2CCOCC2)c(=O)n4C)cn1 [AZD0156] + O=C(c1cc(Cc2n[nH]c(=O)c3ccccc23)ccc1F)N1CCN(C(=O)C2CC2)CC1 [Olaparib] (first compound max 3 µM, partner max 3 µM) equals 0.283

Note to self: combination Emax of CC1(C)CCC(CN2CCN(c3ccc(C(=O)NS(=O)(=O)c4ccc(NCC5CCOCC5)c([N+](=O)[O-])c4)c(Oc4cnc5[nH]ccc5c4)c3)CC2)=C(c2ccc(Cl)cc2)C1 [Venetoclax] + Cc1cc2ncnn2cc1Nc1ncc2c(n1)n(C1CCOCC1)c(=O)n2C [AZD7648] (first compound max 1 µM, 7x7, partner max 10 µM) with SKN-3 (Head and Neck Carcinoma) was 0.0976

Log: SKN-3 (Head and Neck Carcinoma), compound CC1(C)CCC(CN2CCN(c3ccc(C(=O)NS(=O)(=O)c4ccc(NCC5CCOCC5)c([N+](=O)[O-])c4)c(Oc4cnc5[nH]ccc5c4)c3)CC2)=C(c2ccc(Cl)cc2)C1 [Venetoclax] + CN(C)CCCOc1ccc(-c2ccc3ncc4c(c3c2)n(C2CCOCC2)c(=O)n4C)cn1 [AZD0156] (first compound max 1 µM, 7x7, partner max 1 µM) , combination Emax = 0.134

Fill in: SKN-3 (Head and Neck Carcinoma) combination Emax for C=CCn1c(=O)c2cnc(Nc3ccc(N4CCN(C)CC4)cc3)nc2n1-c1cccc(C(C)(C)O)n1 [AZD1775] + C1CN(CCC1(C(=O)N[C@@H](CCO)C2=CC=C(C=C2)Cl)N)C3=NC=NC4=C3C=CN4 [Capivasertib] (first compound max 3 µM, partner max 3 µM) = 0.61

Test item COc1nnc2ccc(N3CCC(c4ccc(OCCN5CCN(C)C(=O)[C@H]5C)cc4)CC3)nn12 [AZD5153] + Cn1cnc2c(F)c(Nc3ccc(Br)cc3Cl)c(C(=O)NOCCO)cc21 [Selumetinib] (first compound max 1 µM, 7x7, partner max 10 µM) ; SKN-3 (Head and Neck Carcinoma); reported combination Emax was 0.531

SKN-3 (Head and Neck Carcinoma) assay, compound Cc1cc2ncnn2cc1Nc1ncc2c(n1)n(C1CCOCC1)c(=O)n2C [AZD7648] + C=CCn1c(=O)c2cnc(Nc3ccc(N4CCN(C)CC4)cc3)nc2n1-c1cccc(C(C)(C)O)n1 [AZD1775] (first compound max 10 µM, partner max 1 µM) , recorded combination Emax = 0.283

Next:
Reported SKN-3 (Head and Neck Carcinoma) combination Emax for item COc1nnc2ccc(N3CCC(c4ccc(OCCN5CCN(C)C(=O)[C@H]5C)cc4)CC3)nn12 [AZD5153] + Cc1c2c(nn1C)CSCc1cc(n(C)n1)CSc1cc(c3ccccc3c1)OCCCc1c(C(=O)O)n(C)c3c-2c(Cl)ccc13 [AZD5991] (first compound max 1 µM, 7x7, partner max 1 µM) was 0.6

Considering COc1cccc(OCCCN)c1-c1cc(Nc2cnc(C#N)cn2)n[nH]1 [Prexasertib] + O=C(c1cc(Cc2n[nH]c(=O)c3ccccc23)ccc1F)N1CCN(C(=O)C2CC2)CC1 [Olaparib] (first compound max 1 µM, 7x7, partner max 10 µM) , its combination Emax with SKN-3 (Head and Neck Carcinoma) was recorded as 0.616

SKN-3 (Head and Neck Carcinoma) assay, compound Cc1c2c(nn1C)CSCc1cc(n(C)n1)CSc1cc(c3ccccc3c1)OCCCc1c(C(=O)O)n(C)c3c-2c(Cl)ccc13 [AZD5991] + Cn1cnc2c(F)c(Nc3ccc(Br)cc3Cl)c(C(=O)NOCCO)cc21 [Selumetinib] (first compound max 1 µM, 7x7, partner max 3 µM) , recorded combination Emax = 0.387

###

- Tested on: JHH-6 (Hepatocellular Carcinoma)
- EXPERIMENT SUMMARY: Bliss excess, mean over the matrix (fraction); higher = more synergy
Each entry below carries its reported Bliss excess.
A bare number is all that is needed in reply.

# value of Bliss excess, JHH-6 (Hepatocellular Carcinoma), item Cc1cc2ncnn2cc1Nc1ncc2c(n1)n(C1CCOCC1)c(=O)n2C [AZD7648] + C=CCn1c(=O)c2cnc(Nc3ccc(N4CCN(C)CC4)cc3)nc2n1-c1cccc(C(C)(C)O)n1 [AZD1775] (first compound max 10 µM, partner max 1 µM) = 0.011

# Bliss excess measured on JHH-6 (Hepatocellular Carcinoma) for item C=CCn1c(=O)c2cnc(Nc3ccc(N4CCN(C)CC4)cc3)nc2n1-c1cccc(C(C)(C)O)n1 [AZD1775] + C1CN(CCC1(C(=O)N[C@@H](CCO)C2=CC=C(C=C2)Cl)N)C3=NC=NC4=C3C=CN4 [Capivasertib] (first compound max 3 µM, partner max 3 µM) = -0.0294

Bliss excess value, target or system JHH-6 (Hepatocellular Carcinoma), for CC(=O)c1c(C)c2cnc(Nc3ccc(N4CCNCC4)cn3)nc2n(C2CCCC2)c1=O [Palbociclib] + Cc1c2c(nn1C)CSCc1cc(n(C)n1)CSc1cc(c3ccccc3c1)OCCCc1c(C(=O)O)n(C)c3c-2c(Cl)ccc13 [AZD5991] (first compound max 10 µM, 7x7, partner max 1 µM) : -0.0212

Bliss excess of COc1cc2c(cc1OCCCCCOc1cc3c(cc1OC)C(=O)N1C=C(C)C[C@H]1C=N3)N=C[C@@H]1CC(C)=CN1C2=O [SG3199] + O=C(c1cc(Cc2n[nH]c(=O)c3ccccc23)ccc1F)N1CCN(C(=O)C2CC2)CC1 [Olaparib] (first compound max 0.001 µM, 7x7, partner max 10 µM) , assay on JHH-6 (Hepatocellular Carcinoma), is -0.0353

Form field, Bliss excess with JHH-6 (Hepatocellular Carcinoma), item NC1(C(=O)N[C@@H](CCO)c2ccc(Cl)cc2)CCN(c2ncnc3[nH]ccc23)CC1 [Capivasertib] + CC(C)n1c(=O)n(C)c2cnc3cc(F)c(-c4ccc(OCCCN5CCCCC5)nc4)cc3c21 [AZD1390] (first compound max 10 µM, 7x7, partner max 0.3 µM) : -0.0908

Note to self: Bliss excess of Cc1cc2ncnn2cc1Nc1ncc2c(n1)n(C1CCOCC1)c(=O)n2C [AZD7648] + CCN(CCO)CCCOc1ccc2c(Nc3cc(CC(=O)Nc4cccc(F)c4)[nH]n3)ncnc2c1 [AZD2811] (first compound max 10 µM, 7x7, partner max 1 µM) with JHH-6 (Hepatocellular Carcinoma) was 0.0238

Attention now shifts to the item below.
The recorded Bliss excess with JHH-6 (Hepatocellular Carcinoma) for CN(C)CCCOc1ccc(-c2ccc3ncc4c(c3c2)n(C2CCOCC2)c(=O)n4C)cn1 [AZD0156] + O=C(c1cc(Cc2n[nH]c(=O)c3ccccc23)ccc1F)N1CCN(C(=O)C2CC2)CC1 [Olaparib] (first compound max 3 µM, partner max 3 µM) was -0.019

###

- System: NOMO-1 (Acute Myeloid Leukemia)
- EXPERIMENT SUMMARY: Bliss excess, mean over the matrix (fraction); higher = more synergy
Classification field: enter rule met for Bliss excess values not below -0.001, rule not met for values below it.

Check out these entries, answers already filled in.
-- ask Please check the record CC(=O)c1c(C)c2cnc(Nc3ccc(N4CCNCC4)cn3)nc2n(C2CCCC2)c1=O [Palbociclib] + Cc1c2c(nn1C)CSCc1cc(n(C)n1)CSc1cc(c3ccccc3c1)OCCCc1c(C(=O)O)n(C)c3c-2c(Cl)ccc13 [AZD5991] (first compound max 10 µM, 7x7, partner max 1 µM) and state if its Bliss excess is at or above -0.001.
-- reply rule not met

-- ask Could you tell me if the measured Bliss excess of CC1(C)CCC(CN2CCN(c3ccc(C(=O)NS(=O)(=O)c4ccc(NCC5CCOCC5)c([N+](=O)[O-])c4)c(Oc4cnc5[nH]ccc5c4)c3)CC2)=C(c2ccc(Cl)cc2)C1 [Venetoclax] + CCN(CCO)CCCOc1ccc2c(Nc3cc(CC(=O)Nc4cccc(F)c4)[nH]n3)ncnc2c1 [AZD2811] (first compound max 1 µM, 7x7, partner max 1 µM) reaches -0.001 or more?
-- reply rule met

-- ask Quick check: does Cn1cnc2c(F)c(Nc3ccc(Br)cc3Cl)c(C(=O)NOCCO)cc21 [Selumetinib] + C[C@@H]1COCCN1C2=NC(=NC(=C2)C3(CC3)[S@](=N)(=O)C)C4=C5C=CNC5=NC=C4 [AZD6738] (first compound max 10 µM, 7x7, partner max 10 µM) have Bliss excess greater than or equal to -0.001?
-- reply rule not met

-- ask Can CCc1c2c(nc3ccc(O)cc13)-c1cc3c(c(=O)n1C2)COC(=O)[C@]3(O)CC [SN-38] + O=C(c1cc(Cc2n[nH]c(=O)c3ccccc23)ccc1F)N1CCN(C(=O)C2CC2)CC1 [Olaparib] (first compound max 0.3 µM, 7x7, partner max 10 µM) be said to have Bliss excess at or above -0.001?
-- reply rule met

-- ask Determine whether measured Bliss excess meets or exceeds -0.001 for COc1cccc2c1C(=O)c1c(O)c3c(c(O)c1C2=O)C[C@@](O)(C(=O)CO)C[C@@H]3O[C@H]1C[C@H](N)[C@H](O)[C@H](C)O1 [Doxorubicin] + Cc1cc2ncnn2cc1Nc1ncc2c(n1)n(C1CCOCC1)c(=O)n2C [AZD7648] (first compound max 1 µM, 7x7, partner max 10 µM)
-- reply rule met

Further cases:
-- ask In plain terms: is recorded Bliss excess at least -0.001 for COc1cc2c(cc1OCCCCCOc1cc3c(cc1OC)C(=O)N1C=C(C)C[C@H]1C=N3)N=C[C@@H]1CC(C)=CN1C2=O [SG3199] + O=C(c1cc(Cc2n[nH]c(=O)c3ccccc23)ccc1F)N1CCN(C(=O)C2CC2)CC1 [Olaparib] (first compound max 0.001 µM, 7x7, partner max 10 µM) ?
-- reply rule not met

-- ask Assess whether reported Bliss excess for CN(CCO)CC[C@H](CSc1ccccc1)Nc1ccc(S(=O)(=O)NC(=O)c2ccc(N3CCC([C@@H](O)c4ccccc4-c4ccc(Cl)cc4)CC3)cc2)cc1S(=O)(=O)C(F)(F)F [AZD4320] + C1CN(CCC1(C(=O)N[C@@H](CCO)C2=CC=C(C=C2)Cl)N)C3=NC=NC4=C3C=CN4 [Capivasertib] (first compound max 1 µM, 7x7, partner max 3 µM) sits at -0.001 or higher.
-- reply rule not met
